Each entry below carries its reported optical density.
- TARGET UNDER TEST: Human Fc (human)
- ASSAY DETAILS: ELISA, negative control
Report the value in OD with no unit label.

Examples from the recorded data:
370_E06 (antibody, V domains shown) VH: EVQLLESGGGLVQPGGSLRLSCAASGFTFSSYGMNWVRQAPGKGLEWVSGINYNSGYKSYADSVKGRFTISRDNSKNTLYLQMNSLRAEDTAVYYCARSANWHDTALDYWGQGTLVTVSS VL: DIQMTQSPSSLSASVGDRVTITCRASQSILSYLNWYQQKPGKAPKLVIYATTSLASGVPSRFSGSGSGTDFTLTISSLQPEDFATYYCQQSYDTPLTFGGGTKVEIK
0.375
373_C06 (antibody, V domains shown) VH: EVQLLESGGGLVQPGGSLRLSCAASGFTFSSYSMNWVRQAPGKGLEWVAGINYNGGYTGYADSVKGRFTISRDNSKNTLYLQMNSLRAEDTAVYYCARSANWHDTALDYWGQGTLVTVSS VL: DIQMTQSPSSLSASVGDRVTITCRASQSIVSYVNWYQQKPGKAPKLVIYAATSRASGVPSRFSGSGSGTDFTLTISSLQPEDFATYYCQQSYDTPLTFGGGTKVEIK
0.163

## Task So what's the measured optical density for this one? 368_D11 (antibody, V domains shown) VH: EVQLLESGGGLVQPGGSLRLSCAASGFTFDDYGMNWVRQAPGKGLEWVSNINYNGGYKSYADSVKGRFTISRDNSKNTLYLQMNSLRAEDTAVYYCARSANWHDTALDYWGQGTLVTVSS VL: DIQMTQSPSSLSASVGDRVTITCRASQSILTYLNWYQQKPGKAPKLVIYAATSRASGVPSRFSGSGSGTDFTLTISSLQPEDFATYYCQQSYDLPLTFGGGTKVEIK
## Result 0.297

These data points were gathered from patent US20210380703A1.
